- ASSAY_SUMMARY: M. tuberculosis growth inhibition, HTS (AID 449762);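 further: bacterial growth assessed after seven days of incubation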
- EXPERIMENTAL_SETUP: M. tuberculosis H37Rv growth inhibition, 7H9 media; at 25 µM; stronger effect = higher value
Hit rate of the full screen: of about 330,000 compounds, about 1,900 (0.58%) were called active. Another 4% or so got no clear call; they are omitted. Only a sample is shown. Measured potencies and affinities stand elsewhere.
MEASURE: inhibition (%)
Response body: numeric value in %, unit text excluded.

{"columns": ["COMPOUND", "inhibition [%]"],
 "data": [
  ["O=C(O)c1cccc(N2C(=O)C3C4C=CC(C4=C(c4ccccc4)c4ccccc4)C3C2=O)c1 (stereo unspecified)", 4.23],
  ["CCCCN1CCNC[C@@H]1c1ccccc1", -9.81],
  ["COc1ccc(C(CNc2nc(-c3cccnc3)nc3ccccc23)N(C)C)cc1 (stereo unspecified)", -3.31],
  ["CCCC(C)NC(=O)COC(=O)c1ccc(Cl)c(S(N)(=O)=O)c1 (stereo unspecified)", -0.98],
  ["CCOC(=O)c1csc(N)n1", -3.93],
  ["Cc1cc(/C=C2\\SC(=O)N(C)C2=O)c(C)n1-c1ccc(S(N)(=O)=O)cc1", -2.91],
  ["O=C(/C=C/c1ccccc1)N/C(=C/c1ccccc1)C(=O)Nc1cccc(C(=O)O)c1", -8.21],
  ["[O-][n+]1ccccc1SCc1ccccc1", -3.14]
]}

(Q) Please give measured inhibition of the following entry: CC(C)OCCCn1c(-c2ccc(Br)cc2)c[nH]c1=S
(A) 8.53

Cited source: PubChem BioAssay AID449762
